The reported numbers originate from ChEMBL document CHEMBL3392971.

- system-name: Protein kinase C epsilon type (Homo sapiens)
- assay-summary: Displacement of [20-3H] phorbol 12, 13-dibutylate from recombinant PKCepsilon (unknown origin) in presence of nuclear membrane mimetic lipid mixture
- Type: cell membranes
endpoint-name: Ki (nM)
Give just the numeric value; nM need not be written.

Exam item: For the molecule shown here, CCCCCC=CCC=CCCCCCCCC(=O)OCC1(CO)C/C(=C\CC(C)C)C(=O)O1 (centres undefined) , give the reported Ki.
Marked response: 13.1

Exam item: For the molecule shown here, CCCCCCCCC#CCCCCCCCC(=O)OCC1(CO)C/C(=C/CC(C)C)C(=O)O1 (centres undefined) , give the reported Ki.
Marked response: 34.6

Exam item: For the molecule shown here, CCCCCC1CC1CC1CC1CCCCCCCC(=O)OCC1(CO)C/C(=C\CC(C)C)C(=O)O1 (centres undefined) , give the reported Ki.
Marked response: 19.8

Exam item: For the molecule shown here, CCCCCC1CC1CC1CC1CCCCCCC/C=C1\CC(CO)(COC(=O)C(C)(C)C)OC1=O (centres undefined) , give the reported Ki.
Marked response: 41

---

- assay-summary: Lipophilicity, log P of the compound
- Type: physicochemical
- experimental-setup: octanol/water; read-out: logP
Exercise: state measured logP for each of the compounds provided.

Exam item: For the compound shown here, CCCCCCC#CC#CCCCCCCCC(=O)OCC1(CO)C/C(=C\CC(C)C)C(=O)O1 (centres undefined) , give the reported logP.
Marked response: 7.82

Exam item: For the compound shown here, CCCCCCCCC#CCCCCCCCC(=O)OCC1(CO)C/C(=C/CC(C)C)C(=O)O1 (centres undefined) , give the reported logP.
Marked response: 8.01

Exam item: For the compound shown here, CCCCCCC#CC#CCCCCCCCC(=O)OCC1(CO)C/C(=C/CC(C)C)C(=O)O1 (centres undefined) , give the reported logP.
Marked response: 7.82

Exam item: For the compound shown here, CCCCCCCCC#CCCCCCCCC(=O)OCC1(CO)C/C(=C\CC(C)C)C(=O)O1 (centres undefined) , give the reported logP.
Marked response: 8.01

---

- system-name: Protein kinase C epsilon type (Homo sapiens, UniProt Q02156)
- Sequence (Q02156 whole entry): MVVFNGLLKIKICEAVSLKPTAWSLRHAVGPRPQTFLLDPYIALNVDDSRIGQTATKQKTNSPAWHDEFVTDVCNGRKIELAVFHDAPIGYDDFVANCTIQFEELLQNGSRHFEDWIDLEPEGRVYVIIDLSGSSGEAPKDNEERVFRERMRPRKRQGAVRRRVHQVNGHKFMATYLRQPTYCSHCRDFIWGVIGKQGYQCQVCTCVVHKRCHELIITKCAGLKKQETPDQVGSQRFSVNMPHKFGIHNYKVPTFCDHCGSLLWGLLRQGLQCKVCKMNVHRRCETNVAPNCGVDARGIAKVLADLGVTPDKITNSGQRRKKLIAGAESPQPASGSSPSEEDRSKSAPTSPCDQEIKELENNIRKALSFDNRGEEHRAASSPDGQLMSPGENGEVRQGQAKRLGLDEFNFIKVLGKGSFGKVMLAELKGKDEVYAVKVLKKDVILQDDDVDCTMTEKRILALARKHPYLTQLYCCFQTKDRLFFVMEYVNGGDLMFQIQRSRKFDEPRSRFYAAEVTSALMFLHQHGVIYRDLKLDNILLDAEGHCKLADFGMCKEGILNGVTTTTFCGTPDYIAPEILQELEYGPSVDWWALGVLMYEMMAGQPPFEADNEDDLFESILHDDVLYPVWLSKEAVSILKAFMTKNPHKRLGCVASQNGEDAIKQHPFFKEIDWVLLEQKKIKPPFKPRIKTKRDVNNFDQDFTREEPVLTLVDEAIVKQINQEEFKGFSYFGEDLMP
- assay-summary: Displacement of [20-3H] phorbol 12, 13-dibutylate from recombinant PKCepsilon (unknown origin) in presence of nuclear membrane mimetic lipid mixture
- Type: cell membranes
Exercise: state measured pKi for each of the molecules provided.
Conceptually, pKi converts a concentration in mol/L into minus its log10.

Exam item: For the molecule shown here, CC(C)C/C=C1/CC(CO)(COC(=O)CC(CC(C)C)CC(C)C)OC1=O (stereo not given) , give the reported pKi.
Marked response: 7.81

Exam item: For the molecule shown here, CC(C)C/C=C1\CC(CO)(COC(=O)CC(CC(C)C)CC(C)C)OC1=O (stereo not given) , give the reported pKi.
Marked response: 8.52

Exam item: For the molecule shown here, CCCCCCC#CC#CCCCCCCCC(=O)OCC1(CO)C/C(=C\CC(C)C)C(=O)O1 (stereo not given) , give the reported pKi.
Marked response: 7.89

Exam item: For the molecule shown here, CCCCCCCCCCCCCCCCCC(=O)OCC1(CO)C/C(=C/CC(C)C)C(=O)O1 (stereo not given) , give the reported pKi.
Marked response: 7.47

Exam item: For the molecule shown here, CC(C)CC(C/C=C1\CC(CO)(COC(=O)C(C)(C)C)OC1=O)CC(C)C (stereo not given) , give the reported pKi.
Marked response: 8.84
